biological target: UniProt P28223; assay: FLIPR Ca2+ flux agonist assay at 5-HT2A; format: cell-based; parameters: host or cells: HEK293; settings: Ca2+ flux, HEK293; read-out: 5-HT2A EC50
Sequence (P28223 whole entry): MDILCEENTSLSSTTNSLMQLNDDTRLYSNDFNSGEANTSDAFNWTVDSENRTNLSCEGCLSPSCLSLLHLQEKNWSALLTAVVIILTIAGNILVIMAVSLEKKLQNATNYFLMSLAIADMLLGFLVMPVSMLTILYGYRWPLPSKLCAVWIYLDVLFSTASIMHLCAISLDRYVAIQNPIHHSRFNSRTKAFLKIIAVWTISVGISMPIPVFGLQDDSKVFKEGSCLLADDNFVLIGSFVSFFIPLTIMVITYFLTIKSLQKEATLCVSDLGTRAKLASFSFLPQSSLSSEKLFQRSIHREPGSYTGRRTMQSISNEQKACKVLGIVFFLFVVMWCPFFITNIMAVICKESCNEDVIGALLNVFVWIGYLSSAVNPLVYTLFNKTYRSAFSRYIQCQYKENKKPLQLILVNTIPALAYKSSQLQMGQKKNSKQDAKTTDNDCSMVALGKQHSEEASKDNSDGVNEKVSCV

| COMPOUND | EC50 |
| --- | --- |
| NCCc1c[nH]c2c(F)ccc(O)c12 | 7.3 nM |
| Oc1cccc2[nH]cc(CCNC3CC3)c12 | 8.7 nM |
| Oc1c(F)ccc2[nH]cc(CCNC3CC3)c12 | 7.37 nM |
| CCCN(CC)CCc1c[nH]c2ccccc12 [EPT, N-ethyl-N-propyltryptamine, reference compound] | 30.5 nM |
| CNCCc1c[nH]c2cc(F)cc(O)c12 | 5.8 nM |
| NCCc1c[nH]c2cc(F)cc(O)c12 | 6.36 nM |
| NCCc1c[nH]c2ccc(F)c(O)c12 | 4.06 nM |
| CCN(C)CCc1c[nH]c2ccccc12 [MET, N-methyl-N-ethyltryptamine, reference compound] | 17.1 nM |

----------
We begin with a simple list: items and their reported log10 EC50.
biological target: 5-HT2B (Homo sapiens, UniProt P41595); construct: host or cells: HEK293; experiment: FLIPR Ca2+ flux agonist assay at 5-HT2B; type: cell-based
Sequence (P41595 whole entry, species assumed): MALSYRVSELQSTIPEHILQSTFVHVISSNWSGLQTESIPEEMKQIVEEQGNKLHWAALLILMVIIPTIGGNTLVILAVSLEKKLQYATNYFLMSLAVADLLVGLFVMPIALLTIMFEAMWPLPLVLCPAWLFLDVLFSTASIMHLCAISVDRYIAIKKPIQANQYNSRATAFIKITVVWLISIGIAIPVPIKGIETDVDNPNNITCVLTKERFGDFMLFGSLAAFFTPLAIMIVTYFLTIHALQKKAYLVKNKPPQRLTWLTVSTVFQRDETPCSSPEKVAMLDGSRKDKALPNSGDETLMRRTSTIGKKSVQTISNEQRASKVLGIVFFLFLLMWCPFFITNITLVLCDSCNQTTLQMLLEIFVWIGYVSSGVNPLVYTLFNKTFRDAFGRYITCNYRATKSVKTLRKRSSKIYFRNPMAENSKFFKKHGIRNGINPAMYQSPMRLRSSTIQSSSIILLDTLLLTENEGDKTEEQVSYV
OBSERVATION TYPE: log10 EC50 (log10 of the value in nM)

| COMPOUND | log10 EC50 |
| --- | --- |
| Oc1c(F)ccc2[nH]cc(CCNC3CC3)c12 | 0.98 |
| CN(C)CCc1c[nH]c2ccc(F)cc12 [Compound 5-F-DMT, reference compound] | 0.99 |
| NCCc1c[nH]c2ccc(F)c(O)c12 | 0.66 |
| CCNCCc1c[nH]c2ccc(F)c(O)c12 | 1.59 |
| CCCNCCc1c[nH]c2ccc(F)c(O)c12 | 1.42 |
| NCCc1c[nH]c2cccc(O)c12 | 2.18 |
| CC(C)NCCc1c[nH]c2ccc(F)c(O)c12 | 1.98 |
| NCCc1c[nH]c2c(F)ccc(O)c12 | 1.48 |
| CCNCCc1c[nH]c2ccc(C)c(O)c12 | 2.44 |
| CNCCc1c[nH]c2cc(F)cc(O)c12 | 1.45 |
| Oc1cccc2[nH]cc(CCNCCF)c12 | 2.57 |

----------
test system: monoamine oxidase A and B (MAO-A and MAO-B); assay: Stability in the presence of monoamine oxidases (human liver mitochondria preparation); details: human liver mitochondria, t = 60 min
Recorded Remaining (t = 60 min), one value per entry.
OBSERVATION TYPE: Remaining (t = 60 min) (%)

| MOLECULE | UNIT STRING | NUMERIC READOUT |
| --- | --- | --- |
| CCNCCc1c[nH]c2ccc(C)c(O)c12 | % | 65.1 |
| CCCN(CC)CCc1c[nH]c2ccccc12 [EPT, N-ethyl-N-propyltryptamine, reference compound] | % | 95.1 |
| CNCCc1c[nH]c2c(F)ccc(O)c12 | % | 6.4 |
| CN(C)CCc1c[nH]c2cccc(O)c12 [Psilocin, psilocin, reference compound] | % | 112.1 |
| CN(C)CCc1c[nH]c2ccc(F)cc12 [Compound 5-F-DMT, reference compound] | % | 0.9 |
| CCCNCCc1c[nH]c2cccc(O)c12 | % | 97.3 |
| CC(C)NCCc1c[nH]c2ccc(F)c(O)c12 | % | 22.8 |
| C=CCNCCc1c[nH]c2cccc(O)c12 | % | 83.5 |
| CCCNCCc1c[nH]c2ccc(F)c(O)c12 | % | 0.9 |
| CCNCCc1c[nH]c2ccc(Cl)c(O)c12 | % | 22.6 |
| CCN(C)CCc1c[nH]c2ccccc12 [MET, N-methyl-N-ethyltryptamine, reference compound] | % | 84.5 |
| C#CCNCCc1c[nH]c2cccc(O)c12 | % | 87.2 |
| CCNCCc1c[nH]c2cc(F)cc(O)c12 | % | 99.1 |
| CC(C)n1cc(CCN(C)C)c2c(O)cc(F)cc21 | % | 55.7 |
| CNCCc1c[nH]c2cc(C)cc(O)c12 | % | 13.5 |
| Oc1c(F)ccc2[nH]cc(CCNC3CC3)c12 | % | 32.1 |
| NCCc1c[nH]c2cc(F)cc(O)c12 | % | 24.6 |
| CC(C)NCCc1c[nH]c2cccc(O)c12 | % | 80.5 |
| CCNCCc1c[nH]c2ccc(F)c(O)c12 | % | 46.4 |

----------
assay: Plasma pharmacokinetics in mice after subcutaneous administration; assay type: in vivo, male C57BL/6 mice; conditions: mouse; plasma, male C57BL/6 mice, SC 10 mg/kg

| MOLECULE | Cmax, ng/mL |
| --- | --- |
| Oc1cccc2[nH]cc(CCNC3CC3)c12 [Compound 4] | 1220 |
| CCN(C)CCc1c[nH]c2cccc(O)c12 [Compound 4-HO-MET, reference compound] | 1160 |
| CN(C)CCc1c[nH]c2ccc(F)cc12 [Compound 5-F-DMT, reference compound] | 363 |

----------
assay: Plasma pharmacokinetics in mice after subcutaneous administration; format: in vivo, male C57BL/6 mice; settings: mouse; plasma, male C57BL/6 mice, SC 10 mg/kg
Attribute: AUC(0-t)

| COMPOUND | UNIT STRING | AUC(0-t) |
| --- | --- | --- |
| CN(C)CCc1c[nH]c2ccc(F)cc12 [Compound 5-F-DMT, reference compound] | ng·h/mL | 247 |
| Oc1cccc2[nH]cc(CCNC3CC3)c12 | ng·h/mL | 665 |
| CCN(C)CCc1c[nH]c2cccc(O)c12 [Compound 4-HO-MET, reference compound] | ng·h/mL | 1410 |

----------
The entries below come with measured AUC(0-t) values attached.
assay: Plasma pharmacokinetics in rats after intravenous administration; conditions: male, Sprague Dawley, rat, plasma, iv, 1 mg/kg
OBSERVATION TYPE: AUC(0-t) (ng·h/mL)

| COMPOUND | OBSERVATION TYPE | NUMERIC READOUT |
| --- | --- | --- |
| CCNCCc1c[nH]c2ccc(F)c(O)c12 | AUC(0-t) | 86.7 |
| CCNCCc1c[nH]c2cccc(O)c12 [Compound 5, 3-(2-(ethylamino)ethyl)-1H-indol-4-ol] | AUC(0-t) | 161 |
| CC(C)NCCc1c[nH]c2ccc(F)c(O)c12 | AUC(0-t) | 126 |
| CN(C)CCc1c[nH]c2ccc(F)cc12 [Compound 5-F-DMT, reference compound] | AUC(0-t) | 35.5 |
| CNCCc1c[nH]c2cccc(O)c12 | AUC(0-t) | 21 |
| CN(C)CCc1c[nH]c2cccc(O)c12 [Psilocin, psilocin, reference compound] | AUC(0-t) | 146 |

----------
Listing of entries alongside the reported t1/2.
assay: Stability in mouse brain homogenate; type: in vitro ADME, male CD-1 mice; conditions: mouse brain homogenate, 1 μM, 37° C.

| MOLECULE | COMPARATIVE SIGN | t1/2 / min |
| --- | --- | --- |
| CN(C)CCc1c[nH]c2ccc(F)cc12 [Compound 5-F-DMT, reference compound] | = | 3.1 |
| CCN(C)CCc1c[nH]c2cccc(O)c12 [Compound 4-HO-MET, reference compound] | = | 45.8 |
| CN(C)CCc1c[nH]c2cccc(O)c12 [Psilocin, psilocin, reference compound] | > | 289.1 |
| COc1ccc2[nH]cc(CCN(C)C)c2c1 [Compound 5-MeO-DMT, reference compound] | > | 289.1 |
| CN(C)CCc1c[nH]c2ccccc12 [DMT, N,N-dimethyltryptamine, reference compound] | = | 6.4 |

----------
experiment: Metabolic stability in human liver microsomes (HLM); design: dose or concentration left out as unconfirmed; conditions: both, human, pooled human liver microsomes, pH 7.4
OBSERVATION TYPE: log10 of half-life (log10 of the value in min)

| SMILES RECORD | log10 of half-life |
| --- | --- |
| C#CCNCCc1c[nH]c2cccc(O)c12 | 1.97 |
| NCCc1c[nH]c2cccc(O)c12 | 1.54 |
| CNCCc1c[nH]c2ccc(F)c(O)c12 | -0.05 |
| Oc1cccc2[nH]cc(CCNC3CC3)c12 | 1.91 |
| Oc1c(F)ccc2[nH]cc(CCNC3CC3)c12 | 1.30 |
| Oc1cccc2[nH]cc(CCNCCF)c12 | 1.89 |
| NCCc1c[nH]c2c(F)ccc(O)c12 | 1.20 |
| CCNCCc1c[nH]c2ccc(Cl)c(O)c12 | 1.12 |
| CNCCc1c[nH]c2cc(C)cc(O)c12 | 1.00 |
| NCCc1c[nH]c2cc(F)cc(O)c12 | 1.23 |
| NCCc1c[nH]c2ccc(F)c(O)c12 | 0.97 |
| CC(C)NCCc1c[nH]c2ccc(F)c(O)c12 | 1.66 |
| CCNCCc1c[nH]c2ccc(C)c(O)c12 | 1.94 |
| CCCNCCc1c[nH]c2cccc(O)c12 | 2.08 |
| CNCCc1c[nH]c2cc(F)cc(O)c12 | 1.00 |
| CNCCc1c[nH]c2cccc(O)c12 | 1.12 |
| CCNCCc1c[nH]c2ccc(F)c(O)c12 | 1.63 |
| CNCCc1c[nH]c2c(F)ccc(O)c12 | 0.82 |
| CC(C)n1cc(CCN(C)C)c2c(O)cc(F)cc21 | 2.03 |
| C=CCNCCc1c[nH]c2cccc(O)c12 | 2.07 |
| CCCNCCc1c[nH]c2ccc(F)c(O)c12 | 1.70 |
